Where do these numbers come from? They come from patent US11584737B2.

# Test system: A2780 cells
# test.protocol: In vitro proliferation suppression test (CellTiter-Glo)
# Format: cell-based, human
# experimental.setup: Homo sapiens, 72 h, A2780 cell proliferation inhibitory rate at 1 μM test compound, three days
List of inhibition at 1 µM values.
Write down the numeric answer in % and omit the unit.

Completed entries (count: 3):
In [3]: df
Out[3]:
                               smiles_entry  reported_measurement
0  Cn1cc(-c2ccc(N(C(=O)NCc3ccccc3)[C@H]3CC[C@H](Nc4ncc(C#N)c(NC5COC5)n4)CC3)cc2)cn1                    97
1  Cn1cc(-c2cnc(N(C(=O)NCc3ccccc3)[C@H]3CC[C@H](Nc4ncc(C#N)c(NC5COC5)n4)CC3)cn2)cn1                    96
2  COc1ncc(-c2ccc(N(C(=O)NCc3ccccc3)[C@H]3CC[C@H](Nc4ncc(C#N)c(NC5COC5)n4)CC3)nc2)cn1                    98

-- ask Entry COc1ncc(-c2ccc(N(C(=O)NCc3ccccn3)[C@H]3CC[C@H](Nc4ncc(C(F)(F)F)c(OC5COC5)n4)CC3)nc2)cn1 has what inhibition at 1 µM?
-- reply 98

-- ask Entry CCCC(=O)N(c1cnc(-c2cnc(OC)nc2)cn1)[C@H]1CC[C@H](Nc2ncc(C(F)(F)F)c(-c3cncc(S(C)(=O)=O)c3)n2)CC1 has what inhibition at 1 µM?
-- reply 99

-- ask Entry COc1ncc(-c2ccc(N(C(=O)NCC(C)(C)O)[C@H]3CC[C@H](Nc4ncc(C(F)(F)F)c(-c5ccn(C(F)F)n5)n4)CC3)nc2)cn1 has what inhibition at 1 µM?
-- reply 97

-- ask Entry COc1ncc(-c2cnc(N(C(=O)OCC(C)(C)O)[C@H]3CC[C@H](Nc4ncc(C(F)(F)F)c(-c5cncc(S(C)(=O)=O)c5)n4)CC3)cn2)cn1 has what inhibition at 1 µM?
-- reply 99

-- ask Entry COc1ncc(-c2ccc(N(C(=O)OCc3ccccc3)[C@H]3CC[C@H](Nc4ncc(C#N)c(N5CC(F)(CO)C5)n4)CC3)nc2)cn1 has what inhibition at 1 µM?
-- reply 93

-- ask Entry COc1ncc(-c2cnc(N(C(=O)OCC(C)(C)O)[C@H]3CC[C@H](Nc4ncc(C(F)(F)F)c(-c5n[nH]cc5Cl)n4)CC3)cn2)cn1 has what inhibition at 1 µM?
-- reply 99

-- ask Entry COc1ncc(-c2cnc(N(C(=O)OCc3ccccc3)[C@H]3CC[C@H](Nc4ncc(C#N)c(NC5COC5)n4)CC3)nc2)cn1 has what inhibition at 1 µM?
-- reply 99

-- ask Entry Cn1ccc(-c2ccc(N(C(=O)NCc3ccccc3)[C@H]3CC[C@H](Nc4ncc(C#N)c(NC5COC5)n4)CC3)cc2)cc1=O has what inhibition at 1 µM?
-- reply 97

-- ask Entry CCOCC(=O)N(c1cnc(-c2cnn(C)c2)cn1)[C@H]1CC[C@H](Nc2ncc(C(F)(F)F)c(-c3cncc(S(C)(=O)=O)c3)n2)CC1 has what inhibition at 1 µM?
-- reply 99
